The reader will find reported pIC50 values listed item by item below.
Organism: Rattus norvegicus
Assay: Compound was tested for the vasorelaxation in rat aorta rings pre-contracted with noradrenaline (NA) 10 uM
Type: functional, organism-based
Quick note: pIC50 values are minus log10 of concentrations in mol/L.

# input Given the compound `COc1c2occ(C)c2cc2c(CO)cc(=O)oc12` , write its reported pIC50.
# output 4.38

Next item in the queue.
# input Respond only with pIC50 recorded for `CC(=O)COc1c2occ(C)c2cc2c(CO)cc(=O)oc12`
# output 4.28
